- System: HUVEC
- protocol-summary: Angiogenic activity of mutant PF4 polypeptides in HUVEC cells
- Format: cell-based, Human
- setup-conditions: Table 4 column Function
experimental-endpoint: antiangiogenic properties/activity of PF4 (effect of the mutation)

PF4-M6: mutant PF4 polypeptide SEQ ID NO:11; triple mutant Q49A, V50S, H54A carrying HBD (protein, listed as Homo sapiens) EAEEDGDLQCLCVKTTSASRPRAITSLEVIKAGPHCPTAQLIATLKNGRKICLDLQAPLYKKIIKKLLES    Mutation decreases the
PF4-M5: mutant PF4 polypeptide SEQ ID NO:9; triple mutant L42S, V44Q, T47A carrying HBD (protein, listed as Homo sapiens) EAEEDGDLQCSCQKTASQVRPRHITSLEVIKAGPHCPTAQLIATLKNGRKICLDLQAPLYKKIIKKLLES    Mutation decreases the
